assay.target: T1, human transferrin receptor (hTfR) (human, UniProt P02786 89-760)
T1 construct: also called human TfR; TfR1
T1 sequence (P02786 89-760 limits assumed): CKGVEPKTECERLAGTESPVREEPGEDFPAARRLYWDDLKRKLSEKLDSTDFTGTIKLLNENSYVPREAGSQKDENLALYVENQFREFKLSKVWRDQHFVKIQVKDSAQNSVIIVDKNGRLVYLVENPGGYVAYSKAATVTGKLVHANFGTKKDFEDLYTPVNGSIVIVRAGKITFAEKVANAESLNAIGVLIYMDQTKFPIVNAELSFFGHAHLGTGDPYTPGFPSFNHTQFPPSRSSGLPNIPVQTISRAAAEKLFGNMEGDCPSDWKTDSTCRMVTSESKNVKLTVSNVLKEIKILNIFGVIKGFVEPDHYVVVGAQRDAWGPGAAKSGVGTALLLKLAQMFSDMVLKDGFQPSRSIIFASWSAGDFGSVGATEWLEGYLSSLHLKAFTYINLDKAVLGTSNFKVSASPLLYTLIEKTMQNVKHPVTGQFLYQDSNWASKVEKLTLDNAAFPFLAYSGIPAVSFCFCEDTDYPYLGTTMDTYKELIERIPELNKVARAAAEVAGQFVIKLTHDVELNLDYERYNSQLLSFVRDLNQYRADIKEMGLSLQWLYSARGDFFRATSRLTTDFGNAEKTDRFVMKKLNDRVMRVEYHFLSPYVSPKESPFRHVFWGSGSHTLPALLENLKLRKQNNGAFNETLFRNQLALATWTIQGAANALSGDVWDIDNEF
test.summary: SPR, Biacore T200, pH 7.4, hTfR captured by anti-His antibody on CM3 chip, single-cycle kinetics
Measured pKd, listed per entry for reference.
// pKd: -log10(molar conc.)

binder	pKd
AVXVWNRYIIRRYXC (MeF at 3; MeF4COO at 14; N-terminal Ala chloroacetylated and cyclised by thioether to Cys 15; linker G-de-de-de-ds-ds-KN3-NH2 on Cys 15 (de = D-Glu, ds = D-Ser, KN3 = azido-lysine, C-terminal amide), Cyclic peptide with linker) [894_3493 (SEQ ID NO: 198)]	5.98

// next entry
Tell me measured pKd for AVXVWNRYIIRRYXC (MeF at 3; MeY at 14; N-terminal Ala chloroacetylated and cyclised by thioether to Cys 15; linker G-de-de-de-ds-ds-KN3-NH2 on Cys 15 (de = D-Glu, ds = D-Ser, KN3 = azido-lysine, C-terminal amide), Cyclic peptide with linker) [894_3495 (SEQ ID NO: 199)] please.
6.27
